Target: T1, human amylin receptor (amylin 3(a) receptor: human calcitonin receptor plus RAMP-3) (human, UniProt P30988 25-474; O60896 24-148)
T1 construct: whole, on cells; functional assay (II)a used the whole cells; also called hAmylin-R; hAmylinR
T1 sequence (looked up) 1: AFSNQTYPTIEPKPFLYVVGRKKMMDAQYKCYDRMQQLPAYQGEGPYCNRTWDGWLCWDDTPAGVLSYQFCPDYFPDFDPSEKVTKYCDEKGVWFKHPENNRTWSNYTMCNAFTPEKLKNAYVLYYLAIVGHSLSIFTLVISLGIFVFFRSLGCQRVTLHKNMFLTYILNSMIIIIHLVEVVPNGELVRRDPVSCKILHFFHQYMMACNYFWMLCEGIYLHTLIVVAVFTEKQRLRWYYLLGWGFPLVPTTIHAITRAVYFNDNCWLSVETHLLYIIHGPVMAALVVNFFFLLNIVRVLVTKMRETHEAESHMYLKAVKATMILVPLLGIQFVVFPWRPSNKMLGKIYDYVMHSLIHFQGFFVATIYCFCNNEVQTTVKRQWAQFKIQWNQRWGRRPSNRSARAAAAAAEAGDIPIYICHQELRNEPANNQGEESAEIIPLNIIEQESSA
T1 sequence (looked up) 2: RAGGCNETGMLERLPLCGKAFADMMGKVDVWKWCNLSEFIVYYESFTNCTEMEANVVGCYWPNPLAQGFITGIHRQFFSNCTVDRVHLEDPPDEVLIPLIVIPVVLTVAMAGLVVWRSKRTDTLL
Assay: SPA competition binding, displacement of 125I-rat amylin, membranes of BHK amylin 3(a)/CRE-luc cells
Numbered stars: 1 amine (or outer) side, 2 acyl side, 3 side chain; on linkers, the order of the positions; unused ones are H or OH. Bridge positions count the residues as written; N and C are the ends. Side chains are listed from the residue outwards. Ends that are not written are not given here. * marks the point of attachment. C20 diacid = O=C(O)CCCCCCCCCCCCCCCCCCC(=O)*; γGlu = O=C(O)[C@H](CCC(=O)[*:2])N[*:1]
property: pIC50
Answers are plain numbers, as −log10 of the molar value.

Below, 3 binders whose answers are already recorded.
[[record]]
binder = "K([γGlu-C20 diacid])CNTATCATQRLAEFLRHSSPNFGAIPSSTNVGPHTY-NH2 (disulfide 2-7)"
recordedvalue = 9.75

[[record]]
binder = "K([γGlu-γGlu-C20 diacid])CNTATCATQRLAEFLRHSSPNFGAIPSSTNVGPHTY-NH2 (disulfide 2-7 (inferred))"
recordedvalue = 9.42

[[record]]
binder = "K([γGlu-γGlu-C20 diacid])CNTATCATQRLADFLRHSSPNFGAIPSSTNVGPETY-NH2 (disulfide 2-7)"
recordedvalue = 9.76


Batch lookup, pIC50 per entry.
1. KCNTATCATQRLANFLRHSSPNFGAIPSSTNVGSETY (C20 diacid-gGlu on the alpha amino group of the N-terminal residue (Lys1); disulfide Cys2-Cys7 and C-terminal amide as in human amylin, also called compound 23) [N^α1-[(4S)-4-carboxy-4-(19-carboxynonadecanoylamino)butanoyl]-[Arg17,Pro21,Pro27,Glu35]-h-amylin]
2. K([γGlu-γGlu-C20 diacid])CNTATCATQRLAEFLRHSSPNFGAILSSTPVGPETY-NH2 (disulfide 2-7 (inferred))
3. {C20 diacid-γGlu}-KCNTATCATQRLAEFLRHSSPNFGAILPSTNVGSETY-NH2 (disulfide 2-7, also called compound 33)

Reply:
1. 9.06
2. 10.16
3. 9.04

Sourced from patent US20140087995A1
